- Target Of Assay: recombinant eIF4E (Homo sapiens (Human), UniProt P06730)
- Sequence (P06730 whole entry): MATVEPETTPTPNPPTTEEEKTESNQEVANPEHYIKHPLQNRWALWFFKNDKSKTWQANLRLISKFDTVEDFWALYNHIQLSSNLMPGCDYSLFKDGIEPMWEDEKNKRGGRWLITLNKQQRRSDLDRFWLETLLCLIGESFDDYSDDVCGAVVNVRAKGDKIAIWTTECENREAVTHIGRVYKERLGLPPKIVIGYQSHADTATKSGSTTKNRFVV
- Assay Details: Fluorescence polarization competition assay for eIF4E binding potency
- Assay Context: inhibition of eIF4E/EDA-m7GDP-ATTO-550 binding; calculated IC50 values, Table 4B; read-out: IC50
Endpoint: pIC50
Keep it numeric: pIC50 is minus log10 of the concentration in mol/L.

### Prompt Sample Cc1nc2cnc(N3CCN(CC(C)(C)C(F)(F)F)CC3)c(C#N)c2c(=O)n1CCOc1ccc(Cl)cc1-c1ccnc2c(C(=O)O)csc12 [compound 1472] — what was its pIC50?
### Response 7.54

### Prompt Sample Cc1nc2cnc(C(F)(F)C3CCN(CC(F)F)CC3)c(C#N)c2c(=O)n1CC#Cc1ccc(Cl)cc1-c1ccnc2c(C(=O)O)csc12 [compound 1572] — what was its pIC50?
### Response 7.70

### Prompt Sample Cc1nc2cnc(N(C)[C@@H]3CC[C@H](N(C)CC(F)F)C3)c(C#N)c2c(=O)n1CC#Cc1ccc(Cl)cc1-c1ccnc2c(C(=O)O)csc12 [compound 1897] — what was its pIC50?
### Response 7.88

### Prompt Sample Cc1cc2cc(C(F)(F)F)c(N3CCN(C)CC3)c(C#N)c2c(=O)n1CCOc1ccc(Cl)cc1-c1ccnc2c(C(=O)O)csc12 [compound 1240] — what was its pIC50?
### Response 7.81

### Prompt Sample Cc1nc2cnc(N3CCN(C)CC3C)c(C#N)c2c(=O)n1CCOc1ccc(Cl)cc1-c1ccnc2c(C(=O)O)csc12 (stereo not drawn) [compound 1335] — what was its pIC50?
### Response 7.89

### Prompt Sample Cc1nc2cnc(/C=C/CN(C)C)c(C#N)c2c(=O)n1CC#Cc1ccc(Cl)cc1-c1ccnc2c(C(=O)O)csc12 [compound 1498] — what was its pIC50?
### Response 7.54

* * *

- Target Of Assay: recombinant eIF4E (Homo sapiens (Human))
- Assay Details: Fluorescence polarization competition assay for eIF4E binding potency
- Assay Context: fluorescence polarization competition, 75 nM recombinant eIF4E, 20 nM EDA-m7GDP-ATTO-550; IC50 class; read-out: elF4E FP
pIC50: −log10 of the molar value.
Endpoint: pIC50

Cc1nc2cc(C(C)(F)F)cc(C#N)c2c(=O)n1CCOc1ccc(Cl)cc1-c1ccnc2c(C(=O)O)csc12 ... 6.00 to 7.30
Cc1nc2cc(C(F)(F)F)c(N3CCN(C)CC3)c(C#N)c2c(=O)n1CCOc1ccc(Cl)cc1 ... 6.00 to 7.30
CNc1nc2c(F)ccc(CCOc3ccc(Cl)cc3-c3cccc(C(=O)O)c3)c2c(=O)[nH]1 ... 6.00 to 7.30
Cc1cc(-c2cc(Cl)ccc2OCCn2c(C)cc3cnc(N(C)C)c(C#N)c3c2=O)c2scc(C(=O)O)c2n1 ... > 7.30
Cc1cc(-c2cc(Cl)ccc2OCCn2c(C)nc3cnc(N4CCC(=O)C4)c(C#N)c3c2=O)c2scc(C(=O)O)c2n1 ... > 7.30

### Prompt Sample Cc1cc(-c2cc(Cl)ccc2OCCn2c(C)nc3cnc(-n4ccc5ccccc54)c(C#N)c3c2=O)c2scc(C(=O)O)c2n1 — what was its pIC50?
### Response > 7.30

### Prompt Sample Cc1nc(-c2ccccc2C(F)(F)F)c(C#N)c2c(=O)n(CCOc3ccc(Cl)cc3-c3ccnc4c(C(=O)O)csc34)c(C)nc12 — what was its pIC50?
### Response > 7.30

* * *

- Target Of Assay: recombinant eIF4E (Homo sapiens (Human))
- Assay Details: Fluorescence polarization competition assay for eIF4E binding potency
- Assay Context: fluorescence polarization competition, 75 nM recombinant eIF4E, 20 nM EDA-m7GDP-ATTO-550; IC50 class; read-out: elF4E FP
- Method: Compounds were screened for eIF4E binding potency using a fluorescence polarization competition assay. All binding reactions were performed in fluorescence polarization buffer (FPB) containing 20 mM Tris pH 7.5, 100 mM NaCl, 1 mM DTT, and 0.02% Tween-20. Final binding reactions contained 75 nM recombinant eIF4E (Beryllium, custom order), 20 nM EDA-m^7GDP-ATTO-550 (Jena Bioscience, NU-827-550) and varying concentrations of the inhibitory compound of interest. […]
Listed here are compounds together with their documented IC50.

Cc1cc(-c2cc(Cl)ccc2OCCn2c(C)nc3cnc(N4CCCC4=O)c(C#N)c3c2=O)c2scc(C(=O)O)c2n1 ... < 50 nM
Cc1cc(-c2cc(Cl)ccc2OCCn2c(C)nc3cnc(NN(C)C)c(C#N)c3c2=O)c2scc(C(=O)O)c2n1 ... < 50 nM
Cc1sc2c(-c3cc(Cl)ccc3OCCn3c(C)nc4cc(C(F)(F)F)c(N5CCN(C)CC5)cc4c3=O)ccnc2c1C(=O)O ... < 50 nM
Cc1cc(-c2cc(Cl)ccc2OCCn2c(C)nc3cnc(N4[C@@H]5C[C@H]4CN(C)C5)c(C#N)c3c2=O)c2sc(C)c(C(=O)O)c2n1 ... < 50 nM
Cc1cc(-c2cc(Cl)ccc2OCCn2c(C)nc3cnc(-c4ccccc4F)c(C#N)c3c2=O)c2scc(C(=O)O)c2n1 ... < 50 nM

### Prompt Sample Cc1nc2cc(C(F)(F)F)cc(C#N)c2c(=O)n1CCOc1ccc(Cl)cc1-c1ccnc2cc(C(=O)O)sc12 — what was its IC50?
### Response 50 to 1000 nM

### Prompt Sample Cc1nc2cnc(N(C)[C@H]3CC[C@H](N4CC(F)(F)C4)CC3)c(C#N)c2c(=O)n1CC#Cc1ccc(Cl)cc1-c1ccnc2c(C(=O)O)csc12 — what was its IC50?
### Response < 50 nM

### Prompt Sample Cc1cc(-c2cc(Cl)ccc2OCCn2c(C)nc3cc(C(F)(F)F)c(-c4ccnc(C)c4F)c(C#N)c3c2=O)c2scc(C(=O)O)c2n1 — what was its IC50?
### Response < 50 nM

### Prompt Sample Cc1nc2cc(C(F)(F)F)cc(C#N)c2c(=O)n1CCOc1ccc(Cl)cc1-c1cc(C#N)nc2c(C(=O)O)csc12 — what was its IC50?
### Response 50 to 1000 nM

### Prompt Sample Cc1nc2cc(C#N)c(OC(F)F)c(C#N)c2c(=O)n1CCOc1ccc(Cl)cc1-c1ccnc2c(C(=O)O)csc12 — what was its IC50?
### Response 50 to 1000 nM

### Prompt Sample Cc1nc2ccc(S(=O)(=O)c3ccccn3)c(C#N)c2c(=O)n1CCOc1ccc(Cl)cc1-c1ccnc2c(C(=O)O)csc12 — what was its IC50?
### Response < 50 nM

### Prompt Sample Cc1cc(-c2cc(Cl)ccc2OCCn2c(C)nc3cnc(C(C)(F)F)c(C#N)c3c2=O)c2scc(C(=O)O)c2n1 — what was its IC50?
### Response < 50 nM

### Prompt Sample Cc1nc2cnc(N3CCN(CC(C)(F)CF)CC3)c(C#N)c2c(=O)n1CCOc1ccc(Cl)cc1-c1ccnc2c(C(=O)O)csc12 (stereo not shown) — what was its IC50?
### Response < 50 nM

### Prompt Sample Cc1cc(-c2cc(Cl)ccc2OCCn2c(C)nc3c(-c4ccccc4)nc(N4CCC4)c(C#N)c3c2=O)c2scc(C(=O)O)c2n1 — what was its IC50?
### Response < 50 nM

* * *

Listed here are compounds together with their documented pIC50.
- Target Of Assay: recombinant eIF4E (Homo sapiens (Human))
- Assay Details: Fluorescence polarization competition assay for eIF4E binding potency
- Assay Context: inhibition of eIF4E/EDA-m7GDP-ATTO-550 binding; calculated IC50 values, Table 4B; read-out: IC50
Keep it numeric: pIC50 is minus log10 of the concentration in mol/L.

Answered examples (3):
COc1cc(S(=O)(=O)NC(=O)c2csc3c(-c4cc(Cl)ccc4C#CCn4c(C)nc5cnc(N(C)C6CCN(CC(C)(F)F)CC6)c(C#N)c5c4=O)ccnc23)ccn1 ... 7.74
Cc1nc2cnc(N(C)C3[C@@H]4C[C@H]3CN(CC(C)(F)F)C4)c(C#N)c2c(=O)n1CC#Cc1ccc(Cl)cc1-c1ccnc2c(C(=O)O)csc12 (stereo partly drawn) ... 7.75
Cc1nc2cnc(N(C)C3CCN(CC(F)F)CC3)c(C#N)c2c(=O)n1CCOc1ccc(Cl)cc1-c1ccnc2c(P(=O)(O)O)csc12 ... 7.81

### Prompt Sample Cc1cc(-c2cc(Cl)ccc2OCCn2c(C)nc3cc(C(F)(F)F)c(N4CCN(C)C(C(F)(F)F)C4)c(C#N)c3c2=O)c2sc(C)c(C(=O)O)c2n1 (stereo not drawn) — what was its pIC50?
### Response 6.92

### Prompt Sample Cc1nc2cnc(-c3cccc(CN(C)CC(F)F)c3)c(C#N)c2c(=O)n1CC#Cc1ccc(Cl)cc1-c1ccnc2c(C(=O)O)csc12 — what was its pIC50?
### Response 7.87

* * *

- Target Of Assay: recombinant eIF4E (Homo sapiens (Human))
- Assay Details: Fluorescence polarization competition assay for eIF4E binding potency
- Assay Context: fluorescence polarization competition, 75 nM recombinant eIF4E, 20 nM EDA-m7GDP-ATTO-550; IC50 class; read-out: elF4E FP
Listed here are compounds together with their documented IC50.

Answered examples (5):
Cc1nc2cnc(N3CC4(C3)CN(C(C)(C)C(F)F)C4)c(C#N)c2c(=O)n1CCOc1ccc(Cl)cc1-c1ccnc2c(C(=O)O)csc12 ... < 50 nM
Cc1nc2cnc(N(C)C3CCN(CC(F)(F)F)CC3)c(C#N)c2c(=O)n1CC#Cc1ccc(Cl)cc1-c1ccnc2c(C(=O)O)csc12 ... < 50 nM
Cc1cc(-c2cc(Cl)ccc2OCCn2c(C)nc3cnc(C4CCC4)c(C#N)c3c2=O)c2scc(C(=O)O)c2n1 ... < 50 nM
O=C(O)c1cccc(-c2cc(Cl)ccc2OCCn2ccc3cccnc3c2=O)c1 ... > 1000 nM
Cc1cc(-c2cc(Cl)ccc2OCCn2c(C)nc3c(C)nc(-c4ccc(C(F)(F)F)cc4)c(C#N)c3c2=O)c2scc(C(=O)O)c2n1 ... < 50 nM

Shift focus to the following entry.
### Prompt Sample CCN(c1ncc2nc(C)n(CC#Cc3ccc(Cl)cc3-c3ccnc4c(C(=O)O)csc34)c(=O)c2c1C#N)C1CCN(CC(F)(F)F)CC1 — what was its IC50?
### Response < 50 nM
